B1: ZNF193 (parent)
chain: QKRYHCKECGKVFSQSAGLIQHQR

- Variants of: B1
- ASSAY_INFO: protein stability index of a GFP-peptide fusion (GPS, HEK-293T) (PSI 1-6); higher = more stable;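 also: lentivirally expressed fusions sorted by FACS into six bins by GFP to DsRed ratio, PSI derived from sequencing read proportions per bin multiplied by bin number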
- CONDITION_LABEL: c terminus: a fixed tail appended

MUTATIONS	protein stability index
H22R	1.62
Q1F	2.45
Q23N	2.36
C6W	1.96
H22T	2.05
V12C	2.81
K2T	2.24
E8T	2.94
Q15Y	2.73
R3C	3.48
Q15E	3.85
H22I	1.73
S14R	3.03
F13I	2.42
H22C	2.04
I20T	3.09
I20C	3.95
S14A	3.47
H5G	2.23
G10N	2.5
S14Y	3.25
S16T	2.27
K7C	2.65
Q23L	2.69
R3W	3.52
V12F	2.67
F13E	2.42
I20P	2.27
G18F	2.26
Q23P	1.74
Y4W	2.86
H22G	1.41
K7D	3.15
K7Q	3.15
G10A	1.96
A17Y	1.94
V12D	3.27

Where do the numbers come from? From the supplement of paper PMC10567573.
